assay: chemical genetic growth profiling, strain panel (AID 1159580);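 further: tested at 20 µM; growth read once vehicle control cultures reached saturation at 30 °C; 1 = growth at the plate median or of vehicle wells; lower values mean less growth of the strain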; conditions: S. cerevisiae deletion strains, growth OD, locus YJL187C, strain SWE1, hits give low values
The whole screen tested about 5,500 compounds, of which about 2,000 (36%) were called active. Not shown: some 18% with an inconclusive outcome. Some of the results follow.
assay-readout: normalized growth
// no unit, no text: just the number

Task item: State, in one line, measured normalized growth of C[C@H]1COc2c(N3CCN(C)CC3)c(F)cc3c(=O)c(C(=O)O)cn1c23
Reply: 1.01

Task item: State, in one line, measured normalized growth of Oc1cc(O)c2c(c1)O[C@H](c1ccc(O)c(O)c1)[C@H](O)C2
Reply: 1

Task item: State, in one line, measured normalized growth of Oc1cc(O)c2c(c1)O[C@H](c1ccc(O)c(O)c1)[C@@H](O)C2
Reply: 1.01

Task item: State, in one line, measured normalized growth of CC1CCc2cc(F)cc3c(=O)c(C(=O)O)cn1c23 (stereo not given)
Reply: 0.989

Task item: State, in one line, measured normalized growth of Oc1ccc2c(c1)O[C@H](c1ccc(O)c(O)c1)[C@@H](O)C2
Reply: 1.03

* * *

assay: chemical genetic growth profiling, strain panel (AID 1159580);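 further: tested at 20 µM; growth read once vehicle control cultures reached saturation at 30 °C; 1 = growth at the plate median or of vehicle wells; lower values mean less growth of the strain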; settings: S. cerevisiae deletion strains, growth OD, locus YDR334W, strain swr1, hits give low values
The whole screen tested about 5,500 compounds, of which about 2,000 (36%) were called active. About 18% were inconclusive and are not listed. Some of the results follow.
assay-readout: normalized growth
// no unit, no text: just the number

Task item: State, in one line, measured normalized growth of NCCc1cnc[nH]1
Reply: 1.02

Task item: State, in one line, measured normalized growth of CC1(C)S[C@@H]2[C@H](NC(=O)[C@H](N)c3ccccc3)C(=O)N2[C@H]1C(=O)O
Reply: 0.961

Task item: State, in one line, measured normalized growth of Clc1ccc(C(c2ccc(Cl)cc2)C(Cl)(Cl)Cl)cc1
Reply: 1.02

Task item: State, in one line, measured normalized growth of C=C[C@@](C)(O)CCC1C(=C)C[C@H](OC(C)=O)C2C(C)(C)CCCC12C (some centres not stated)
Reply: 1.04

Task item: State, in one line, measured normalized growth of CN(C)CCOC(c1ccc(Cl)cc1)c1ccccn1 (configuration not stated)
Reply: 1.01

Task item: State, in one line, measured normalized growth of C=C1CCC2[C@](C)(CO)[C@H](O)CC[C@@]2(C)[C@@H]1C/C=C1/C(=O)OC[C@H]1O (some centres not stated)
Reply: 0.987

Task item: State, in one line, measured normalized growth of Cc1ccccc1C(OCCN(C)C)c1ccccc1 (configuration not stated)
Reply: 1.01

Task item: State, in one line, measured normalized growth of OCC(O)CN1CCN(c2ccccc2)CC1 (configuration not stated)
Reply: 0.945

Task item: State, in one line, measured normalized growth of CNCCC(Oc1ccc(C(F)(F)F)cc1)c1ccccc1 (configuration not stated)
Reply: 0.987

Task item: State, in one line, measured normalized growth of CCN1CCCC(OC(=O)C(c2ccccc2)c2ccccc2)C1 (configuration not stated)
Reply: 0.958

Task item: State, in one line, measured normalized growth of O=C1NCC2(CCN(CCc3ccccc3)CC2)O1
Reply: 0.983

Task item: State, in one line, measured normalized growth of COc1ccc(C(=O)CC(=O)O)c2c1C=CC(C)(C)O2
Reply: 0.997

Task item: State, in one line, measured normalized growth of O=C1C(Cl)=C(Cl)C(=O)C(Cl)=C1Cl
Reply: 0.98

Task item: State, in one line, measured normalized growth of COc1ccc(C(c2ccc(OC)cc2)C(Cl)(Cl)Cl)cc1
Reply: 1.03

Task item: State, in one line, measured normalized growth of Clc1ccc(C(OCCN2CCCCC2)c2ccccc2)cc1 (configuration not stated)
Reply: 1.03

Task item: State, in one line, measured normalized growth of C#CCN(C)Cc1ccccc1
Reply: 1.02

Task item: State, in one line, measured normalized growth of CN1CCC(OC(c2ccccc2)c2ccccc2)CC1
Reply: 0.982
